system: HPAC cell line; test: CellTiter-Blue cell viability assay, HPAC; type: cell-based; conditions: Homo sapiens, most resistant cell line, read-out: individual IC50
pIC50: −log10 of the molar value.
measured_quantity: pIC50

test_smiles=COc1ccc2c(c1)OC(C)(C)[C@@H](c1ccccc1)[C@@H]2c1ccc(OCCN2CCCC2)cc1 measured_on="HPAC cell line" measured_quantity=pIC50 recorded_value=2.27

The measured values listed here are drawn from patent US20210299098A1.
